# Tested on: 201T
# EXPERIMENT: relative viability (nuclei count vs DMSO), 5 days (fraction); higher = more cells survive
# CONDITION_INFO: first compound 0.04 µM
Let's look at some molecules and their measured relative viability.
Answer using only a numeral; do not append any unit.

Reference set, count: 3
- MOLECULE: "C[C@@H]1CN(CC(=O)Nc2ccc3c(c2)Cc2cccc(-c4cc(=O)cc(N5CCOCC5)o4)c2S3)C[C@H](C)O1 + Cc1nc(Nc2ncc(C(=O)Nc3c(C)cccc3Cl)s2)cc(N2CCN(CCO)CC2)n1 [Dasatinib] (partner 0.075 µM)"
  relative viability: 0.624
- MOLECULE: "COc1cc(N2CCC(C(N)=O)CC2)ccc1Nc1nc(N)c(Cl)c(Nc2ccccc2S(=O)(=O)C(C)C)n1 [HG-5-88-01] + Nc1ncn([C@H]2C[C@H](O)[C@@H](CO)O2)c(=O)n1 [Decitabine] (partner 2 µM)"
  relative viability: 0.856
- MOLECULE: "Clc1ccc(Nc2nnc(Cc3ccncc3)c3ccccc23)cc1 [Vatalanib] + CC1(C)CCC(c2ccc(Cl)cc2)=C(CN2CCN(c3ccc(C(=O)NS(=O)(=O)c4ccc(N[C@H](CCN5CCOCC5)CSc5ccccc5)c(S(=O)(=O)C(F)(F)F)c4)cc3)CC2)C1 [Navitoclax] (partner 0.5 µM)"
  relative viability: 1.17

Switching to the query record.
Short answer please: relative viability, 201T, entry C[C@@H]1CN(CC(=O)Nc2ccc3c(c2)Cc2cccc(-c4cc(=O)cc(N5CCOCC5)o4)c2S3)C[C@H](C)O1 + C[C@@H](Oc1cc(-c2cnn(C3CCNCC3)c2)cnc1N)c1c(Cl)ccc(F)c1Cl [Crizotinib] (partner 1 µM)
1.05
